The values you see were collected from ChEMBL document CHEMBL3885861.

Organism: Rattus norvegicus
Experiment: Open TG-GATES - Regimen: Single
Assay type: toxicity, organism-based, Sprague-Dawley
Parameters: regimen Single, gender Male, age 6 weeks
Conditions: in vivo, po, 100 mg/kg, 3 h, tissue Plasma, route gavage, dose level Low
Please respond with reported ALT for every item in the list.
Numeric only. Scale: IU/L

Endpoint output: ALT of Clc1ccccc1CN1CCc2sccc2C1 . Value?
35

Endpoint output: ALT of O=C(O)c1cn(C2CC2)c2cc(N3CCNCC3)c(F)cc2c1=O . Value?
35

Endpoint output: ALT of CCc1cc(C(N)=S)ccn1 [ETHIONAMIDE] . Value?
36

Endpoint output: ALT of C[C@H](CS)C(=O)N1CCC[C@H]1C(=O)O . Value?
35.6

Endpoint output: ALT of O=C(O)c1cc(/N=N/c2ccc(S(=O)(=O)Nc3ccccn3)cc2)ccc1O . Value?
37.4
